Molecular target: T1, human TL1A extracellular domain with N-terminal HIS and FLAG tag (human, UniProt O95150 72-251)
T1 construct: the whole entry is named
T1 sequence: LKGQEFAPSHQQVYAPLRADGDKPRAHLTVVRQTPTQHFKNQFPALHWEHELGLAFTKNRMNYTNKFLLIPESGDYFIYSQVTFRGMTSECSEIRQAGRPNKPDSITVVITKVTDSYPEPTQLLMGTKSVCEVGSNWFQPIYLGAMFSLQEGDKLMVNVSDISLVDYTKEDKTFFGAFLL
Assay: SPR Run 6, purified Ab captured on Protein A, TL1A 5 ug/mL, timepoint 44
Provide the reported TL1A Binding Level (Early) of each item.
Unit RU implied. Number only.

# return recorded TL1A Binding Level (Early) for input 320-466 (antibody, human IgG1, name in Kabat numbering, V domains shown, human IgG1, lambda) VH: QVQLVQSGAEVKKPGASVKVSCKASGYTFTSYDIDWVRQAPGQGLEWMGWLNPNSGNTGYAQKFQGRVTMTADRSTSTAYMELSSLRSEDTAVYYCAREVPETAAFEYWGQGTLVTVSS VL: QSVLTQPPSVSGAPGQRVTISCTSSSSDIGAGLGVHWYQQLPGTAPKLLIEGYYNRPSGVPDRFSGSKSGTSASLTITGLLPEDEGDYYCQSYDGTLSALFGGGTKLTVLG
93

# return recorded TL1A Binding Level (Early) for input 320-454 (antibody, human IgG1, name in Kabat numbering, V domains shown, human IgG1, lambda) VH: QVQLVQSGAEVKKPGASVKVSCKASGYTFTSYDANWVRQAPGQGLEWMGWLNPNSGNTGYAQKFQGRVTMTADRSTSTAYMELSSLRSEDTAVYYCAREVPETAAFEYWGQGTLVTVSS VL: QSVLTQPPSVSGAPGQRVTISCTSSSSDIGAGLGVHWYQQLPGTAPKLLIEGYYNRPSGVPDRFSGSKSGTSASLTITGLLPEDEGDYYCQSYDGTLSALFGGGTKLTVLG
43

# return recorded TL1A Binding Level (Early) for input 320-442 (antibody, human IgG1, name in Kabat numbering, V domains shown, human IgG1, lambda) VH: QVQLVQSGAEVKKPGASVKVSCKASGYTFTSHDINWVRQAPGQGLEWMGWLNPNSGNTGYAQKFQGRVTMTADRSTSTAYMELSSLRSEDTAVYYCAREVPETAAFEYWGQGTLVTVSS VL: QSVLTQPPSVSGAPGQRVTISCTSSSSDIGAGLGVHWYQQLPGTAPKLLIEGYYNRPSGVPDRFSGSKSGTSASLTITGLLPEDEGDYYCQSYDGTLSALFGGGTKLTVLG
124
